Tested on: WT K562 cells
Experiment: Mini-screen: pooled synthetic intron mini-library in HSV-TK, GCV treatment, full-length intron sequencing from genomic DNA
Assay type: cell-based
Details: genotype WT (SF3B1+/+) K562; GCV 100 ug/mL; day 6; vector hPGK-PuroR-P2A-HSV-TK
# maps each entry to its fold-change (estimated fold-change in intron abundance in gDNA)
endpoint_label: fold-change (estimated fold-change in intron abundance in gDNA)

{"molecule": "intron_2790: 150 nt synthetic intron, mutation 148_AtoG (canonical 3′ss); SEQ ID NO 59/67 (nucleic acid) DNA 1: GTGAGTCGCCCCCTTCCTCTGCTCCGAGAGGGAAATGGGAATTAGGGTGGTGGCAGAGCCCAAAGAGGCCTTGTAGGCCATGGTAAGGCATTTCTATGTTTTATTTTACTTTGTCTTTATCCTAAAATGCCATTGGCAAGTTTATTGCGG DNA 2: GTGAGTCGCCCCCTTCCTCTGCTCCGAGAGGGAAATGGGAATTAGGGTGGTGGCAGAGCCCAAAGAGGCCTTGTAGGCCATGGTAAGGCATTTCTATGTTTTATTTTACTTTGTCTTTATCCTAAAATGCCATTGGCAAGTTTATTGCGG", "readout_value": 1.042}
{"molecule": "intron_2258: 100 nt MTERFD3 intron 1-derived synthetic intron, deletion 15to65; SEQ ID NO 57/65 (nucleic acid, expressed or natural sequence) DNA 1: GTGAGTCGCCCCCTTAGGCCTTGTAGGCCATGGTAAGGCATTTCTATGTTTTATTTTACTTTGTCTTTATCCTAAAATGCCATTGGCAAGTTTATTGCAG DNA 2: GTGAGTCGCCCCCTTAGGCCTTGTAGGCCATGGTAAGGCATTTCTATGTTTTATTTTACTTTGTCTTTATCCTAAAATGCCATTGGCAAGTTTATTGCAG", "readout_value": 1.279}
{"molecule": "intron_26: 150 nt MTERFD3 intron 1-derived synthetic intron, deletion 25to125; SEQ ID NO 58/66 (nucleic acid) DNA 1: GTGAGTCGCCCCCTTCCTCTGCTCCGAGAGGGAAATGGGAATTAGGGTGGTGGCAGAGCCCAAAGAGGCCTTGTAGGCCATGGTAAGGCATTTCTATGTTTTATTTTACTTTGTCTTTATCCTAAAATGCCATTGGCAAGTTTATTGCAG DNA 2: GTGAGTCGCCCCCTTCCTCTGCTCCGAGAGGGAAATGGGAATTAGGGTGGTGGCAGAGCCCAAAGAGGCCTTGTAGGCCATGGTAAGGCATTTCTATGTTTTATTTTACTTTGTCTTTATCCTAAAATGCCATTGGCAAGTTTATTGCAG", "readout_value": 1.034}
